Below, each entry is listed alongside its reported IC50.
Biological target: mTOR (human recombinant aa mTOR 1360-2549) (Homo sapiens (Human), UniProt P42345)
Sequence (P42345 1360-2549): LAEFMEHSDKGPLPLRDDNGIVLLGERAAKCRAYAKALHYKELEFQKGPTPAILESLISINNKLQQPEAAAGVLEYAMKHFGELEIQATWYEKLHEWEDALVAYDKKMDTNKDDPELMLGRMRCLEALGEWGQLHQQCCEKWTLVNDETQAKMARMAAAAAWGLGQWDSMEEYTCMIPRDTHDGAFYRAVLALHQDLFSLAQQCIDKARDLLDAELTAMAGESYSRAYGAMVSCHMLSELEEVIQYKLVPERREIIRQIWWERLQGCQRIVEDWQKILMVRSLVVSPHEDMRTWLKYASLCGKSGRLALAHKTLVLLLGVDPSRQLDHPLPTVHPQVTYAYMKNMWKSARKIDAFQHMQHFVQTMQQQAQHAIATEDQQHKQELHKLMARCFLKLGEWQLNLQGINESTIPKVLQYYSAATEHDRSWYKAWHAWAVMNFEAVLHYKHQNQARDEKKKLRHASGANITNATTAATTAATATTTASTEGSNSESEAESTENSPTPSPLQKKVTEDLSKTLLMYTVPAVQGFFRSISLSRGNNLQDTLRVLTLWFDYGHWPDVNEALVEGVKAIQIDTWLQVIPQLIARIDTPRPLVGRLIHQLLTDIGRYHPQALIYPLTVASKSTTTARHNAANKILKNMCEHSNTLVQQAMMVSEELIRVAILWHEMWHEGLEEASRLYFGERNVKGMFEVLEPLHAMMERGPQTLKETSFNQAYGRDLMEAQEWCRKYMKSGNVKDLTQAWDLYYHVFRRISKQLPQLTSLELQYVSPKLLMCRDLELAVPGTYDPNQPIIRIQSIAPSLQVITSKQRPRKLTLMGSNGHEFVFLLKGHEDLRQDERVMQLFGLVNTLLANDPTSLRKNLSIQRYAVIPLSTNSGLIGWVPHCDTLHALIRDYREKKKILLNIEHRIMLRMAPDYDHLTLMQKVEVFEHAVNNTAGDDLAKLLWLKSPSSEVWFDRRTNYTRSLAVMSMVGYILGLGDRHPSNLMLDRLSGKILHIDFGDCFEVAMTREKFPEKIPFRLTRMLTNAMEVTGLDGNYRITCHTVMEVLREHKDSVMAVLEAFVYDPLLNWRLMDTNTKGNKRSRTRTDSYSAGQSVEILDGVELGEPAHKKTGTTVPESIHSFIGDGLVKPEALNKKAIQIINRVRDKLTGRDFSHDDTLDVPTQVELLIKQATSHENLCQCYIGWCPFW
Assay: mTOR enzymatic test by TR-FRET (phosphorylation of GFP-4EBP1)
Assay type: biochemical
Respond numerically; units are nM and should not be typed.

Some entries whose results are on file:
- MOLECULE: "Cc1ccc(NC(=O)Nc2ccc(-c3nc(N4CC5CCC(C4)O5)nc4c3C(=O)N(C)CC(C)(C)O4)cc2F)cn1 [Example 66]"
  UNIT: "nM"
  IC50: 16
- MOLECULE: "COc1ccc(NC(=O)Nc2ccc(-c3nc(N4CCOC[C@@H]4C)nc4c3C(=O)N(C3CCOCC3)CC(C)(C)O4)cc2F)cn1 [Example 189]"
  UNIT: "nM"
  IC50: 62
- MOLECULE: "CCNC(=O)Nc1ccc(-c2nc(N3C[C@@H](C)O[C@@H](C)C3)nc3c2C(=O)N(CC)CC(C)(C)O3)cc1 [Example 114]"
  UNIT: "nM"
  IC50: 1220
- MOLECULE: "CCNC(=O)Nc1ccc(-c2nc(N3CCOC[C@@H]3C)nc3c2C(=O)N(CC)CC(C)(C)O3)cc1F [Example 3]"
  UNIT: "nM"
  IC50: 18
- MOLECULE: "CCN1CC(C)(C)Oc2nc(N3CCOCC3)nc(-c3ccc(NC(=O)OC)cc3)c2C1=O [Example 103]"
  UNIT: "nM"
  IC50: 194
- MOLECULE: "CCN1CC(C)(C)Oc2nc(N3CC4CCC(C3)O4)nc(-c3ccc(NC(=O)Nc4ccc(OC)nn4)cc3)c2C1=O [Example 146]"
  UNIT: "nM"
  IC50: 35

Now examine the next entry.
Task: Provide only the value of recorded IC50 for CCN1CC(C)(C)Oc2nc(N3CC4CCC(C3)O4)nc(-c3ccc(Nc4nnc(C)[nH]4)c(F)c3)c2C1=O [Example 152]
Result: 348
